- Test system: Bacillus subtilis
- assay.text: Antibacterial activity against Bacillus subtilis NCDC 71 by single disk method
- Type: functional
Recorded measurements of MIC, one per entry
Enter your answer as a number in µg/mL; do not include the unit.

{"molecule": "CCn1cc(C(=O)O)c(=O)c2cc(F)c(N3CCN(CC(=O)Nc4nc5ccc(C)cc5s4)CC3)cc21", "number": 30}

Value of MIC reported for the molecule "O=C(CN1CCN(c2cc3c(cc2F)c(=O)c(C(=O)O)cn3C2CC2)CC1)Nc1nc2c(Cl)ccc(Cl)c2s1" is 10

Value of MIC reported for the molecule "CCn1cc(C(=O)O)c(=O)c2cc(F)c(N3CCN(CC(=O)Nc4nc5c(Cl)ccc(Cl)c5s4)CC3)cc21" is 20

Value of MIC reported for the molecule COc1c(N2CCN(CC(=O)Nc3nc4c(Cl)cccc4s3)C(C)C2)c(F)cc2c(=O)c(C(=O)O)cn(C3CC3)c12 (centres undefined) is 75
